Tested on: SK-OV-3
protocol.description: NCI tumour cell line growth inhibition, 48 h
Activity calls are given as the source filed them. No stated cut-off is given here; in the data, active = GI50 up to about 1.1 µM and inactive = higher. Non-standard residues stand in square brackets, D forms with d. Residues, ends and D or L forms follow the SMILES beside them. ξ: configuration not given here. *: point of attachment. dThr(3ξ) = CC(O)[C@@H](N)C(=O)O; dNMeL = CN[C@H](CC(C)C)C(=O)O; OBn = c1ccc(CO*)cc1; ξLac = CC(O)C(=O)O
Outcome codes: active, inactive

compound	label.class
CCSCCCSCCSCC	inactive
C/C(=N\N)C(CN(C)C)C(c1ccccc1)c1c(O)c2ccccc2oc1=O (stereo not given)	inactive
O=C(O)[C@H](Cc1ccccc1)NCCN1CCC[C@H]1C(=O)O	inactive
CCC(=O)OC1CCn2c1nc1c2C(=O)C(C)=C(NC(C)=O)C1=N (stereo not given)	inactive
CC(=O)OC(C)[C@@H](NC(=O)[C@@H](CC(C)C)N(C)C(=O)[C@@H]1CCCN1C(=O)C(C)O)C(=O)OCc1ccccc1 (stereo not given in full) (H-[ξLac]P[dNMeL][dThr(3ξ)](Ac)-OBn)	inactive
Cn1c(=O)c2[nH]c(C3CC(=O)CC(c4nc5c([nH]4)c(=O)n(C)c(=O)n5C)N3)nc2n(C)c1=O (stereo not given)	inactive
CCCCCCCCCCCCCP(=O)(O)O	inactive
Cn1cnc([N+](=O)[O-])c1Sc1nncc2[nH]cnc12	inactive
CCC1OC2C(CC=C(C)C)=C3OC(C)(O)C(C)(CC)C(O)C3=C3OC(=O)C=C1C32 (stereo not given)	inactive
NC(Cc1ccc(N(CCCl)CCCl)cc1)C(=O)NC(CCC(=O)O)C(=O)O (stereo not given)	inactive
COc1ccc2c(c1)-c1c(c3cc(OC)ccc3n1CCN(C)C)CC2	inactive
NS(=O)(=O)c1ccc(/N=N/c2ccc(O)cc2)cc1	inactive
COc1ccc2sc(-n3nc4ccccc4c3Nc3nc4ccc(OC)cc4s3)nc2c1	inactive
COc1ccc(C2SCC(=O)N2NC2=NC(=O)CC(=O)N2)cc1 (stereo not given)	inactive
Nc1nc(N)c2cc(-c3ccccc3)cnc2n1	inactive
CCOC(=O)/C(C#N)=C(O)/C(=C\c1ccc(Br)cc1)NC(=O)c1ccccc1	inactive
Brc1ccc2[nH]c3c(C4=NCCC4)nccc3c2c1	inactive
CC(C)CCC[C@@H](C)C1CCC2[C@@H]3CCC4CC(CCC=C(c5cc(Cl)c(OC(=O)c6ccccc6)c(C(=O)O)c5)c5cc(Cl)c(OC(=O)c6ccccc6)c(C(=O)O)c5)CC[C@]4(C)C3CC[C@@]21C (stereo not given in full)	inactive
O=[N+]([O-])c1ccc(NC2OCC(O)C(O)C2O)cc1 (stereo not given)	inactive
COC(=O)c1cc2ccc(N)nc2[nH]c1=O	inactive
CO[C@H]1/C=C/O[C@@]2(C)Oc3c(C)c(O)c4c(O)c(c(/C=N/N5CCN(C)CC5)c(O)c4c3C2=O)NC(=O)/C(C)=C\C=C\[C@H](C)[C@H](O)[C@@H](C)[C@@H](O)[C@@H](C)[C@H](OC(C)=O)[C@@H]1C	inactive
C/C(=N\Nc1nc2ccccc2s1)c1cccnn1	inactive
CC1(C)C(CC(=O)O)CCCC1CC(=O)O (stereo not given)	inactive
N#Cc1ccc(C2ON=C(c3ccccc3)N2C23CC4CC(CC(C4)C2)C3)cc1 (stereo not given)	inactive
CC(C)=CC1C(C(=O)O)C1(C)C (stereo not given)	inactive
COc1ccc(C(C)Nc2cc(OC)c(OC)c(OC)c2)cc1 (stereo not given)	inactive
CC(=O)c1c(=O)n(-c2ccc(C)cc2)c(O)c2c(N)n[nH]c12	inactive
O=C(O)c1ccccc1Sc1ccccc1[N+](=O)[O-]	inactive
O=C(O)CCC(=O)OCN1C(=O)C2C3C=CC(C2C1=O)C1C2C(=O)N(COC(=O)CCC(=O)O)C(=O)C2C31 (stereo not given)	inactive
O=C1/C(=C(/Br)I)c2ccccc2-c2ccccc21	inactive
CC1=NN(c2nc(N)nc(CC#N)n2)C(C)(C)C1	inactive
CC1Cc2c(N)nc(NN)nc2NC1=O (stereo not given)	inactive
CN(C)CC1CC/C(=C\c2ccc3c(c2)OCO3)C1=O (stereo not given)	inactive
CSc1ccc(NC(=S)NN(C)C)cc1	inactive
COc1ccc(N(CC(=O)O)N=O)cc1	inactive
COC(=O)CCCc1ccc2c(c1)CCC2	inactive
N#CC(C(=N/NC(N)=S)/C(=N/NC(N)=S)C(C#N)c1ccc(Cl)cc1)c1ccc(Cl)cc1 (stereo not given)	inactive
O=S(=O)(Cc1ccccc1)c1nnc(S(=O)(=O)c2ccc(Cl)cc2)s1	inactive
COC1(OC)C[C@H](C)[C@@]23O[C@]24c2cc(O)c5c(c2N[C@H]3C#C/C=C\C#C[C@]14O)C(=O)c1ccccc1C5=O	active
COc1cc(/C=C2/C[C@H]3[C@@H]4CC=C5C[C@@H](OC(C)=O)CC[C@]5(C)[C@H]4CC[C@]3(C)NC2=O)cc(OC)c1OC	inactive
